Population Hoechst High Intensity Objects (%) values, listed per item
Tested on: U2OS
Assay: Multiplex assay against U2OS
Assay type: toxicity, cell-based
Details: human, 12 h, 1 µM, compound concentration 1 uM, replicate 2
experimental readout: Population Hoechst High Intensity Objects (%)

CC[C@@H]1C(=O)N(C)c2cnc(Nc3ccc(C(=O)NC4CCN(C)CC4)cc3OC)nc2N1C1CCCC1 [BI-2536]    8
N#CCNC(=O)c1ccc(-c2ccnc(Nc3ccc(N4CCOCC4)cc3)n2)cc1 [MOMELOTINIB]    8
CCOC(=O)CCNc1cc(N2CCc3ccccc3CC2)nc(-c2ccccn2)n1    8
N#Cc1cccc(C(=O)Nc2cc(-c3ccccc3)nn2-c2ccccc2)c1    3
CCCc1cc(C)[nH]c(=O)c1CNC(=O)c1cc(-c2ccc(N3CCN(C(C)C)CC3)nc2)cc2c1cnn2C(C)C    10
Oc1cccc(-c2nc(N3CCOCC3)c3oc4ncccc4c3n2)c1 [PI-103]    5
Cc1ccc(NC(=O)Nc2cc(C(F)(F)F)ccc2F)cc1Nc1ccc2c(c1)NC(=O)/C2=C\c1ccc[nH]1    12
Cc1c(Nc2ccc(S(=O)(=O)N3CCN(C)CC3)cc2F)nc2ccc(Nc3cnn(C4CC4)c3)cn2c1=O    6
Cc1ccc(S(=O)(=O)NC2c3ccccc3Oc3ccccc32)cc1    4

---

System: U2OS
Experiment: Multiplex assay against U2OS
Type: toxicity, cell-based
Settings: human, 48 h, 10 µM, compound concentration 10 uM, replicate 2
experimental readout: Population Mitochondria Different-Phenotype (%)

CC(Cc1ccc(O)c(O)c1)C(C)Cc1ccc(O)c(O)c1 (stereo not drawn) [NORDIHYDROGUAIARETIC ACID]    16
C[C@@H](Oc1cc(-n2cnc3ccc(CN4CCN(C)CC4)cc32)sc1C(N)=O)c1ccccc1C(F)(F)F    100
Cc1c(P(=S)(c2ccccc2)c2ccccc2)n2ccccc2[n+]1C/C=C/c1ccccc1.[Br-]    75

---

System: Fibroblast
Assay: Multiplex assay against human fibroblast
Format: toxicity, cell-based
Details: 12 h, 10 µM, compound concentration 10 uM, replicate 2
experimental readout: Population Normal (%)

Cc1c(Nc2ccc(S(=O)(=O)N3CCN(C)CC3)cc2F)nc2ccc(Nc3cnn(C4CC4)c3)cn2c1=O    72
CC(C)[C@H](CO)Nc1nc(Nc2cccc(Cl)c2)c2ncn(C(C)C)c2n1    92
C[C@@H](Oc1cc(-n2cnc3ccc(CN4CCN(C)CC4)cc32)sc1C(N)=O)c1ccccc1C(F)(F)F    90
Cc1c(P(=S)(c2ccccc2)c2ccccc2)n2ccccc2[n+]1C/C=C/c1ccccc1.[Br-]    91

---

Population Mitochondria Different-Phenotype (%) values, listed per item
System: U2OS
Assay: Multiplex assay against U2OS
Format: toxicity, cell-based
Details: human, 12 h, 1 µM, compound concentration 1 uM, replicate 2
experimental readout: Population Mitochondria Different-Phenotype (%)

CN(c1cc(C(F)(F)F)nc(OCCC(=O)O)n1)c1cccc2c1CCC2    20%
N#Cc1cccc(C(=O)Nc2cc(-c3ccccc3)nn2-c2ccccc2)c1    8%
CCOc1ccn(-c2ccc(F)cc2)c(=O)c1C(=O)Nc1ccc(Oc2ccnc(N)c2Cl)c(F)c1    31%
CC[C@H](Nc1ncnc2[nH]cnc12)c1nc2cccc(F)c2c(=O)n1-c1ccccc1    8%
C[C@@H](Oc1cc(-n2cnc3ccc(CN4CCN(C)CC4)cc32)sc1C(N)=O)c1ccccc1C(F)(F)F    35%

---

System: U2OS
Assay: Multiplex assay against U2OS
Assay type: toxicity, cell-based
Conditions: human, 24 h, 10 µM, compound concentration 10 uM, replicate 2
Population Tubulin-Different-Phenotype (%) values, listed per item
experimental readout: Population Tubulin-Different-Phenotype (%)

CC(C)C[C@H](NC(=O)[C@H](Cc1ccccc1)NC(=O)CNC(=O)CNC(=O)[C@@H](N)Cc1ccc(O)cc1)C(=O)O    15
Cl.NC[C@@H]1O[C@H](C23CC4CC(CC(C4)C2)C3)Cc2c1ccc(O)c2O    26
Cc1ccc(NC(=O)Nc2cc(C(F)(F)F)ccc2F)cc1Nc1ccc2c(c1)NC(=O)/C2=C\c1ccc[nH]1    18
NC(=O)c1ccc2nc(-c3ccc(C4(N)CCC4)cc3)c(-c3ccccc3)n2n1    25
N#CCNC(=O)c1ccc(-c2ccnc(Nc3ccc(N4CCOCC4)cc3)n2)cc1    14
CCCCN(CC)c1nc(C)nc2c1c(C)cn2-c1c(C)cc(C)cc1C.Cl    21
Cc1c(Nc2ccc(S(=O)(=O)N3CCN(C)CC3)cc2F)nc2ccc(Nc3cnn(C4CC4)c3)cn2c1=O    20
CN(c1cc(C(F)(F)F)nc(OCCC(=O)O)n1)c1cccc2c1CCC2    44

---

Tested on: Fibroblast
Experiment: Multiplex assay against human fibroblast
Type: toxicity, cell-based
Settings: 24 h, 10 µM, compound concentration 10 uM, replicate 1
Population Pyknosed Nuclei (%) values, listed per item
experimental readout: Population Pyknosed Nuclei (%)

CC[C@H](Nc1ncnc2[nH]cnc12)c1nc2cccc(F)c2c(=O)n1-c1ccccc1 [IDELALISIB]    17
N#Cc1cccc(C(=O)Nc2cc(-c3ccccc3)nn2-c2ccccc2)c1    39
Cc1c(Nc2ccc(S(=O)(=O)N3CCN(C)CC3)cc2F)nc2ccc(Nc3cnn(C4CC4)c3)cn2c1=O    13
CC[C@@H]1C(=O)N(C)c2cnc(Nc3ccc(C(=O)NC4CCN(C)CC4)cc3OC)nc2N1C1CCCC1 [BI-2536]    10
Cc1c(Nc2ccc(S(=O)(=O)N3CCN(C)CC3)cc2F)nc2ccc(-c3cnn(C4CC4)c3)cn2c1=O    13
c1ccc(-c2oc3ncnc(NC[C@@H]4CCCO4)c3c2-c2ccccc2)cc1    17
Cc1ccc(NC(=O)Nc2cc(C(F)(F)F)ccc2F)cc1Nc1ccc2c(c1)NC(=O)/C2=C\c1ccc[nH]1    20
CN(c1cc(C(F)(F)F)nc(OCCC(=O)O)n1)c1cccc2c1CCC2    25
Cl.NC[C@@H]1O[C@H](C23CC4CC(CC(C4)C2)C3)Cc2c1ccc(O)c2O    30
CN1C(=O)[C@@H](NC(=O)c2cc3ccccc3[nH]2)N=C(c2ccccc2)c2ccccc21 [DEVAZEPIDE]    16
CCCc1cc(C)[nH]c(=O)c1CNC(=O)c1cc(-c2ccc(N3CCN(C(C)C)CC3)nc2)cc2c1cnn2C(C)C    35
CCCCN(CC)c1nc(C)nc2c1c(C)cn2-c1c(C)cc(C)cc1C.Cl    21
NC(=O)c1ccc2nc(-c3ccc(C4(N)CCC4)cc3)c(-c3ccccc3)n2n1 [BAY-1125976]    15
C=CC(=O)Nc1cc(-n2c(=O)ccc3cnc4ccc(-c5ccc(NS(C)(=O)=O)cc5)cc4c32)ccc1C    23

---

Population Membrane Permeable-Phenotype (%) values, listed per item
Test system: U2OS
Test: Multiplex assay against U2OS
Type: toxicity, cell-based
Details: human, 24 h, 1 µM, compound concentration 1 uM, replicate 2
experimental readout: Population Membrane Permeable-Phenotype (%)

CCOc1ccn(-c2ccc(F)cc2)c(=O)c1C(=O)Nc1ccc(Oc2ccnc(N)c2Cl)c(F)c1 [BMS-777607]    28
Cl.Cn1c2c(c3ccc(Cl)c(Cl)c31)C(C#N)C1(CCNCC1)NC2=O (stereo not given)    8
Cc1c(Nc2ccc(S(=O)(=O)N3CCN(C)CC3)cc2F)nc2ccc(-c3cnn(C4CC4)c3)cn2c1=O    8
CCCc1cc(C)[nH]c(=O)c1CNC(=O)c1cc(-c2ccc(N3CCN(C(C)C)CC3)nc2)cc2c1cnn2C(C)C    10
C[C@@H](Oc1cc(-n2cnc3ccc(CN4CCN(C)CC4)cc32)sc1C(N)=O)c1ccccc1C(F)(F)F [GSK-461364]    18

---

Growth Rate values, listed per item
Tested on: HEK-293T
Assay: Incucyte cell viability with HEK293T; also: filed as whole numbers so only -1 and 0 and 1 occur
Format: toxicity, cell-based
Conditions: human, 12 h, 10 µM, compound concentration 10 uM, replicate number 1, timepoint 12 hours
experimental readout: Growth Rate

Oc1cccc(-c2nc(N3CCOCC3)c3oc4ncccc4c3n2)c1    0
CC[C@@H]1C(=O)N(C)c2cnc(Nc3ccc(C(=O)N[C@H]4CC[C@H](N5CCN(CC6CC6)CC5)CC4)cc3OC)nc2N1C(C)C    0
N#CC1(c2ccccn2)CCN(Cc2cc(C(=O)O)c(=O)n3ccccc23)CC1    1
COc1ccccc1-c1cc(Nc2cccc(CS(N)(=O)=O)c2)ncn1    0
CS(=O)(=O)N1CCCC(NC(=O)[C@H](CCC2CCCCC2)NC(=O)c2ccc(CNC(=O)c3cnc4ccccn34)cc2)C1 (some centres undefined)    0
CNC(=O)Nc1ccc2c(c1)CC[C@@]21OC(=O)N(CC(=O)N(Cc2ccc(F)cc2)[C@@H](C)C(F)(F)F)C1=O    0
CN(CCOc1ccc(CC2SC(=O)NC2=O)cc1)c1ccccn1 (centres undefined)    1
Cc1ccc(S(=O)(=O)NC2c3ccccc3Oc3ccccc32)cc1    1
CC(C)(C)c1ccc(C(=O)Nc2cn3cc(-n4ccnc4)ccc3n2)cc1.Cl.Cl    0
NC(=O)c1ccc2nc(-c3ccc(C4(N)CCC4)cc3)c(-c3ccccc3)n2n1    0
N#Cc1cccc(C(=O)Nc2cc(-c3ccccc3)nn2-c2ccccc2)c1    0
O=C(NNS(=O)(=O)c1ccccc1)c1cc(-c2ccnnc2)ccc1F    1
CC(/C=C1\SC(=S)N(CCCC(=O)Nc2ccc(C(=O)O)c(O)c2)C1=O)=C\c1ccccc1    0
NC(=O)[C@@H]1CCCN1C(=O)[C@H](Cc1cnc[nH]1)NC(=O)[C@@H]1CCC(=O)N1    1
CC(C)NCC(O)COc1cccc2ccccc12.Cl (centres undefined) [PROPRANOLOL HYDROCHLORIDE]    0
Cc1c(F)cccc1NC(=O)Nc1ccc(Cl)c(S(=O)(=O)[C@H]2CCCNC2)c1O    0
CCC(=O)NC1Cc2ccccc2C(c2ccccc2)C1 (centres undefined)    0
CC[C@H](Nc1ncnc2[nH]cnc12)c1nc2cccc(F)c2c(=O)n1-c1ccccc1    0
NS(=O)(=O)c1cc(NC(=O)Cc2ccccc2)ccc1Oc1cccc(Cl)c1    0
CCCCN(CC)c1nc(C)nc2c1c(C)cn2-c1c(C)cc(C)cc1C.Cl    0
COc1ncc(F)cc1CNc1ccc(Cc2c[nH]c3ncc(C)cc23)c(F)n1    1
OCCn1cc(-c2ccc3c(c2)CCC3=NO)c(-c2ccncc2)n1    1
CC(C)C[C@H](NC(=O)N1CCCCCC1)C(=O)N[C@H](Cc1cn(C)c2ccccc12)C(=O)N[C@H](Cc1ccccn1)C(=O)O    0
CC(C)(O)c1cncc(-c2nc3ccc(F)cc3n2C2CC2)c1    0
